# assay-system: benzodiazepine site of the GABA-A receptor
# experiment: Benzodiazepine Receptor Binding Assay (inhibition of 3H-flunitrazepam binding)
# measurement-context: Table 3; ca. 3 nM 3H-flunitrazepam
pIC50: −log10 of the molar value.
Collected pIC50 values appear next to each entry.
reported-property: pIC50

1) CCCN1C2=C(C(=O)Nc3ccccc3F)C(=O)CCN2c2ccccc21 [compound 130] :: > 9.00
2) CCCN1C2=C(C(=O)Nc3c(F)cc(F)cc3F)C(=O)CCN2c2ccccc21 [compound 137] :: > 7.00
3) CCN1C2=C(C(=O)Nc3ccccc3)C(=O)CCN2c2ccccc21 [compound 121] :: > 10.00
4) CN1C2=C(C(=O)Nc3ccccc3F)C(=O)CCN2c2ccccc21 [compound 122] :: > 9.00

* * *

# assay-system: benzodiazepine site of the GABA-A receptor
# experiment: Benzodiazepine Receptor Binding Assay (inhibition of 3H-flunitrazepam binding)
# measurement-context: Table 1; ca. 3 nM 3H-flunitrazepam, 25° C., 10-20 min; >10,000 = not active
pIC50: −log10 of the molar value.
Collected pIC50 values appear next to each entry.
reported-property: pIC50

1. O=C1CCN2C(=C1C(=O)Nc1ccncc1Cl)Nc1ccccc12 [compound 75] :: 6.66
2. CN(C)c1ccc(NC(=O)C2=C3Nc4ccccc4N3CCC2=O)c(F)c1 [compound 86] :: 6.92
3. Cc1cc(NC(=O)C2=C3Nc4ccccc4N3CCC2=O)on1 [compound 68] :: 7.27
4. O=C1CCN2C(=C1C(=O)Nc1c(F)c(F)nc(F)c1F)Nc1ccccc12 [compound 55] :: 6.46
5. O=C1CCN2C(=C1C(=O)NN1CCOCC1)Nc1ccccc12 [compound 60] :: 5.52

* * *

# experiment: Suppression of anxiety (punished licking, conflict test) in the adult male rat
# Type: in vivo, male rats
# measurement-context: Table 1, ip, minimum effective dose, >10 = active dose not determined, read-out: Conflict (ip) MED
reported-property: minimal effective dose

1) O=C1CCN2C(=C1C(=O)NCc1ccncc1)Nc1ccccc12 [compound 59] :: > 10 mg/kg
2) O=C1CCN2C(=C1C(=O)NC1CC1)Nc1ccccc12 [compound 43] :: > 10 mg/kg
3) O=C1CCN2C(=C1C(=O)Nc1ccc(F)cc1F)Nc1ccccc12 [compound 92] :: > 10 mg/kg
